Target Or Test System: PGD2 receptor (Homo sapiens, UniProt Q13258)
Sequence (Q13258 whole entry): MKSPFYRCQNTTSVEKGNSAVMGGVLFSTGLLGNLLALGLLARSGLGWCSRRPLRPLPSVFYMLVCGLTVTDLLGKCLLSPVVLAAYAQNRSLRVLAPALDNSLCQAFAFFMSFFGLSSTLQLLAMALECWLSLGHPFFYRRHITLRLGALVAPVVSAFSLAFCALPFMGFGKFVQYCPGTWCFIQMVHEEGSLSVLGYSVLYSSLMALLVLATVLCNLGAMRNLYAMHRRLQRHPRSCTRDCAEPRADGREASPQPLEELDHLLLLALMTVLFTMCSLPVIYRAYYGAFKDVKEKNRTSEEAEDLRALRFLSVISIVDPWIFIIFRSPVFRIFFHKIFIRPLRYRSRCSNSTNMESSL
Procedure Text: Antagonistic activity against PGD2 receptor using human platelet (inhibition of cAMP increase caused by PGD2)
Assay type: cell-based
Measurement Conditions: 0.1 μM PGD2; read-out: Inhibitory activity for the increase of cAMP caused by PGD2 in human platelet IC50
Each entry below lists one item and its recorded IC50 value.
Observed Property: IC50 (µM)

- Compound: "O=C(O)CCCC=CCC1C2CCC(C2)C1NC(=O)c1csc2c(Cc3ccsc3)cccc12 (centres unmarked)"
  Observed Property: "IC50"
  Measurement Unit: "µM"
  Measured Number: 0.026
- Compound: "O=C(O)CCCC=CCC1C2CCC(C2)C1NC(=O)c1ccn(S(=O)(=O)c2cccs2)c1 (centres unmarked)"
  Observed Property: "IC50"
  Measurement Unit: "µM"
  Measured Number: 0.01
- Compound: "Cc1cccn1S(=O)(=O)c1ccc(C(=O)NC2C(CC=CCCCC(=O)O)CC3CC2C3(C)C)s1 (centres unmarked)"
  Observed Property: "IC50"
  Measurement Unit: "µM"
  Measured Number: 0.0039
- Compound: "O=C(O)CCCC=CCC1C2CCC(C2)C1NC(=O)c1ccc(Cc2ccsc2)s1 (centres unmarked)"
  Observed Property: "IC50"
  Measurement Unit: "µM"
  Measured Number: 0.0047
- Compound: "Cc1cc(S(=O)(=O)c2ccc(C(=O)NC3C(CC=CCCCC(=O)O)CC4CC3C4(C)C)s2)cs1 (centres unmarked)"
  Observed Property: "IC50"
  Measurement Unit: "µM"
  Measured Number: 0.045
